experimental_details: Microsomal stability in human liver microsome assessed as parent compound remaining preincubated with compound for 60 mins and measured after 1 hr by HPLC analysis
Type: ADME
condition_notes: liver microsomes, time 2 hrs, read-out: Stability
Overview of reported remaining at 1 h across a group of compounds:

- mol: "CCN1CCN(c2ccc(Nc3nc(Nc4ccccc4N(C)S(C)(=O)=O)c4cc[nH]c4n3)cc2F)CC1"
  remaining at 1 h [%]: 41.9
- mol: "CCN1CCN(C2CCN(c3ccc(Nc4nc(Nc5ccccc5N(C)S(C)(=O)=O)c5cc[nH]c5n4)cc3F)CC2)CC1"
  remaining at 1 h [%]: 57.3

###

target_of_assay: Epidermal growth factor receptor (Homo sapiens, UniProt P00533, C797S/EX19DEL/T790M)
Sequence (P00533 whole entry, looked up, stated change not applied): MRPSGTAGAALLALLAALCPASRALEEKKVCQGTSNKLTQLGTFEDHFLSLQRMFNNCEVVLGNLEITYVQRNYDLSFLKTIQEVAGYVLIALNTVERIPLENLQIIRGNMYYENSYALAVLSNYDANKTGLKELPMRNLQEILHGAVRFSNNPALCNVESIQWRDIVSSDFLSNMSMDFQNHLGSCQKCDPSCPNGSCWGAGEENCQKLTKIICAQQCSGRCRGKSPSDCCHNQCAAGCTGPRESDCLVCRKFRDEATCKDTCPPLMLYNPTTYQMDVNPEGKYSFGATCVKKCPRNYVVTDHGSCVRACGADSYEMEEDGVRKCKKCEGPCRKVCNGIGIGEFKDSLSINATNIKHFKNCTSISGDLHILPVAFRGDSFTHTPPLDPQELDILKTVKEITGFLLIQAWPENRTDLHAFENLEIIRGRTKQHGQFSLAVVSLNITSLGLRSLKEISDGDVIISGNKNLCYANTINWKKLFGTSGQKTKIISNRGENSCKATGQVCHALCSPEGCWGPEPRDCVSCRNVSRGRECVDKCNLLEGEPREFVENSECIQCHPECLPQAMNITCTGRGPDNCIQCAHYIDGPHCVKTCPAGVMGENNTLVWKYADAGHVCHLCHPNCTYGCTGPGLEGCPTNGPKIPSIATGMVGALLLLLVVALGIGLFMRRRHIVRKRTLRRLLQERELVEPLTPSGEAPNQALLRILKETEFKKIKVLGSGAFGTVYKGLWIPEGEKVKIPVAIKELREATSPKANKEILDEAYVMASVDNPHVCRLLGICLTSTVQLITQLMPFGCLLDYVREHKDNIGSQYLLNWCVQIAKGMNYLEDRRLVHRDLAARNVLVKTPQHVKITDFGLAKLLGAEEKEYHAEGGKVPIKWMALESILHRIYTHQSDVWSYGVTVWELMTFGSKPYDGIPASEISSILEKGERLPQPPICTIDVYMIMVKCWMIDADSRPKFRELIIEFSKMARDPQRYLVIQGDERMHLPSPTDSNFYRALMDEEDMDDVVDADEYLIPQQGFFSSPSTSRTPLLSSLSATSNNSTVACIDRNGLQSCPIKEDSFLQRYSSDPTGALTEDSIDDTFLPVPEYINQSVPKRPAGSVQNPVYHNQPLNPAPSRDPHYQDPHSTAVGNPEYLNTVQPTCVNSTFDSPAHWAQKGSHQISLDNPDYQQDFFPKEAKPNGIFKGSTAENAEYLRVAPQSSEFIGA
experimental_details: Inhibition of EGFR phosphorylation in human PC-9 cells harboring Del19/T790M/C797S mutant incubated for 6 hrs by Western blot analysis
Type: cell-based
pIC50: −log10 of the molar value.
readout_kind: pIC50

- mol: "CCN1CCN(c2ccc(Nc3nc(Nc4ccccc4N(C)S(C)(=O)=O)c4cc[nH]c4n3)cc2F)CC1"
  target_of_assay: "Epidermal growth factor receptor (Homo sapiens, UniProt P00533, C797S/EX19DEL/T790M)"
  number: 8.02
- mol: "CCN1CCN(C2CCN(c3ccc(Nc4nc(Nc5ccccc5N(C)S(C)(=O)=O)c5cc[nH]c5n4)cc3F)CC2)CC1"
  target_of_assay: "Epidermal growth factor receptor (Homo sapiens, UniProt P00533, C797S/EX19DEL/T790M)"
  number: 8.13

###

Listed below: remaining at 2 h values for each entry.
experimental_details: Stability in mouse plasma assessed as parent compound remaining measured after 2 hrs by LC-MS/MS analysis
Type: ADME, cell-free
condition_notes: read-out: Stability

- mol: "CCN1CCN(c2ccc(Nc3nc(Nc4ccccc4N(C)S(C)(=O)=O)c4cc[nH]c4n3)cc2F)CC1"
  result_units: "%"
  remaining at 2 h: 97.8
- mol: "CCN1CCN(C2CCN(c3ccc(Nc4nc(Nc5ccccc5N(C)S(C)(=O)=O)c5cc[nH]c5n4)cc3F)CC2)CC1"
  result_units: "%"
  remaining at 2 h: 97.4

###

# fraction unbound at 6 h listing for each entry below
experimental_details: Plasma protein binding in mouse assessed as unbound fraction measured after 6 hrs by rapid equilibrium dialysis based LC-MS/MS analysis
Format: ADME, cell-free

- mol: "CCN1CCN(c2ccc(Nc3nc(Nc4ccccc4N(C)S(C)(=O)=O)c4cc[nH]c4n3)cc2F)CC1"
  fraction unbound at 6 h: 0.926
- mol: "CCN1CCN(C2CCN(c3ccc(Nc4nc(Nc5ccccc5N(C)S(C)(=O)=O)c5cc[nH]c5n4)cc3F)CC2)CC1"
  fraction unbound at 6 h: 0.946

###

In this section we review reported clearance values for a set of compounds.
experimental_details: Clearance in mouse at 5 mg/kg, iv measured upto 24 hrs by LC-MS/MS analysis
Type: ADME, organism-based
condition_notes: in vivo

- mol: "CCN1CCN(C2CCN(c3ccc(Nc4nc(Nc5ccccc5N(C)S(C)(=O)=O)c5cc[nH]c5n4)cc3F)CC2)CC1"
  clearance / mL/min/kg: 53.3
- mol: "CCN1CCN(c2ccc(Nc3nc(Nc4ccccc4N(C)S(C)(=O)=O)c4cc[nH]c4n3)cc2F)CC1"
  clearance / mL/min/kg: 85

###

experimental_details: Cmax in mouse at 5 mg/kg, iv measured upto 24 hrs by LC-MS/MS analysis
Assay type: ADME, organism-based
condition_notes: in vivo
Cmax values for the compounds below.

- mol: "CCN1CCN(c2ccc(Nc3nc(Nc4ccccc4N(C)S(C)(=O)=O)c4cc[nH]c4n3)cc2F)CC1"
  Cmax [ng/mL]: 4550
- mol: "CCN1CCN(C2CCN(c3ccc(Nc4nc(Nc5ccccc5N(C)S(C)(=O)=O)c5cc[nH]c5n4)cc3F)CC2)CC1"
  Cmax [ng/mL]: 1560

###

experimental_details: Half life in mouse at 75 mg/kg, po measured upto 24 hrs by LC-MS/MS analysis
Type: ADME, organism-based
condition_notes: in vivo
# half-life values compiled below

- mol: "CCN1CCN(C2CCN(c3ccc(Nc4nc(Nc5ccccc5N(C)S(C)(=O)=O)c5cc[nH]c5n4)cc3F)CC2)CC1"
  result_units: "h"
  half-life: 3.5
- mol: "CCN1CCN(c2ccc(Nc3nc(Nc4ccccc4N(C)S(C)(=O)=O)c4cc[nH]c4n3)cc2F)CC1"
  result_units: "h"
  half-life: 2.3

###

experimental_details: Volume of distribution at steady state in mouse at 5 mg/kg, iv measured upto 24 hrs by LC-MS/MS analysis
Format: ADME, organism-based
condition_notes: in vivo, read-out: Vdss
Below: a set of entries, each annotated with reported Vd.

- mol: "CCN1CCN(c2ccc(Nc3nc(Nc4ccccc4N(C)S(C)(=O)=O)c4cc[nH]c4n3)cc2F)CC1"
  Vd [L/kg]: 2
- mol: "CCN1CCN(C2CCN(c3ccc(Nc4nc(Nc5ccccc5N(C)S(C)(=O)=O)c5cc[nH]c5n4)cc3F)CC2)CC1"
  Vd [L/kg]: 10.8

###

experimental_details: Microsomal stability in mouse liver microsome assessed as parent compound remaining preincubated with compound for 60 mins and measured after 1 hr by HPLC analysis
Assay type: ADME
condition_notes: liver microsomes, time 2 hrs, read-out: Stability

- mol: "CCN1CCN(c2ccc(Nc3nc(Nc4ccccc4N(C)S(C)(=O)=O)c4cc[nH]c4n3)cc2F)CC1"
  remaining at 1 h (%): 33
- mol: "CCN1CCN(C2CCN(c3ccc(Nc4nc(Nc5ccccc5N(C)S(C)(=O)=O)c5cc[nH]c5n4)cc3F)CC2)CC1"
  remaining at 1 h (%): 24

###

experimental_details: AUC (0 to 24 hrs) in mouse at 75 mg/kg, po measured upto 24 hrs by LC-MS/MS analysis
Format: ADME, organism-based
condition_notes: in vivo
readout_kind: AUC(0-t) at 24 h (ng·h/mL)

- mol: "CCN1CCN(C2CCN(c3ccc(Nc4nc(Nc5ccccc5N(C)S(C)(=O)=O)c5cc[nH]c5n4)cc3F)CC2)CC1"
  result_units: "ng·h/mL"
  number: 35800
- mol: "CCN1CCN(c2ccc(Nc3nc(Nc4ccccc4N(C)S(C)(=O)=O)c4cc[nH]c4n3)cc2F)CC1"
  result_units: "ng·h/mL"
  number: 34000

###

experimental_details: Inhibition of wild type EGFR in mouse BAF3 cells assessed as reduction in cell proliferation incubated for 3 days by celltiter-glo assay
Format: cell-based
condition_notes: BaF3, 72 h
Reported IC50 values for the following compounds.

- compound: "CN1CCN(c2ccc(Nc3nc(Nc4ccccc4N(C)S(C)(=O)=O)c4cc[nH]c4n3)c(F)c2)CC1"
  IC50 (nM): 202
- compound: "CC(C)S(=O)(=O)N(C)c1ccccc1Nc1nc(Nc2ccc(N3CCN(C)CC3)c(F)c2)nc2[nH]ccc12"
  IC50 (nM): 185
- compound: "CCN1CCN(c2ccc(Nc3nc(Nc4ccccc4N(C)S(C)(=O)=O)c4cc[nH]c4n3)cc2F)CC1"
  IC50 (nM): 667
- compound: "CN(c1ccccc1Nc1nc(Nc2ccc(N3CCCCC3)c(F)c2)nc2[nH]ccc12)S(C)(=O)=O"
  IC50 (nM): 739
- compound: "CN(c1ccccc1Nc1nc(Nc2ccc(N3CCCCC3)cc2)nc2[nH]ccc12)S(C)(=O)=O"
  IC50 (nM): 1240
- compound: "Cc1cc(Nc2nc(Nc3ccccc3N(C)S(C)(=O)=O)c3cc[nH]c3n2)ccc1N1CCN(C)CC1"
  IC50 (nM): 41.7
- compound: "CN1CCN(C2CCN(c3ccc(Nc4nc(Nc5ccccc5N(C)S(C)(=O)=O)c5cc[nH]c5n4)cc3F)CC2)CC1"
  IC50 (nM): 254
- compound: "COc1cc(N2CCC(N3CCN(C)CC3)CC2)ccc1Nc1ncc(Cl)c(Nc2ccccc2P(C)(C)=O)n1 [BRIGATINIB]"
  IC50 (nM): 782
